Numbers sourced from the supplement of paper PMC12042874.

measurement.notes: amyloid nucleation score (Sup35N fusion, yeast selection) (log enrichment); library NNK2; higher = more nucleation; inactive = no reads after selection;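 note: zero at mode of non-aggregating sequences after 7 days selection at 30°C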
Task for the reader: assign each of the following substances its reported amyloid nucleation score.
Give bare numbers.

// known answers, use as guide
              substance  test_value
0  SLYVVQYCRSRYLVNCTDRV       0.129
1               WKQEYFG      -0.508
2            YLLFHYGFLN        -1.1

Field: amyloid nucleation score. Fill in for each record below.
1. NLSRRCKIADWSIHCATIHE
2. FLQLLDNFALLDLVG
3. PWFKTFWSNMWAVTGW
4. YFQKGFDVARIHLSFTLVLY

[-0.235, -0.12, -0.436, -0.913]

* * *

measurement.notes: amyloid nucleation score (Sup35N fusion, yeast selection) (log enrichment); library NNK1; higher = more nucleation; inactive = no reads after selection
Task for the reader: assign each of the following substances its reported amyloid nucleation score.
Give bare numbers.

// known answers, use as guide
In [3]: df
Out[3]:
              substance  test_value
0  MLTPDLSSDLDILRPTSPLT       0.879
1       VHFEGFWAFTLVDLT       0.232
2    VDCPIECTAAGRSHDSGV        1.42

Field: amyloid nucleation score. Fill in for each record below.
1. HSWYEELMVVLNISSHGHLD
2. YSYAGSLMAWSRKVHMHTEV
3. DSSCADR

0.351
-0.19
0.674

* * *

measurement.notes: amyloid nucleation score (Sup35N fusion, yeast selection) (log enrichment); library NNK1; higher = more nucleation; inactive = no reads after selection
assay.readout: amyloid nucleation score
Give bare numbers.

Field: amyloid nucleation score. Fill in for each record below.
1. SLYLGNSGSDLGD
2. ICKDKHAIV
3. CVFYASTYVIPYNCENNFTI
4. TLPDKRILLSANIMPALVCN
5. NTMPSGWNRYTVYG
6. ISWFRCLEVWPSYGIPDWKN
7. FFWCRSRLTLAF
8. FDHSIVKKSQLRGFTVVLRL

0.2
-0.282
0.952
0.837
-0.634
-0.467
0.024
1.22

Field: amyloid nucleation score. Fill in for each record below.
1. SYLYTVNLFDFYCCRLRGST
2. VNLYGVLMGSLLGGQRQHDV
3. GVLSKSSKLFNCKDYCHSKY
4. TSELFYGTCGKGCPERVGGQ
5. KDICSYGLNYSLDNVVYNLV
6. NYYIRRTCMSTYYVRVLIKS
7. SDCRKAFIMSHRSDGNLEFV
8. SYLHMFTMFV

[3.99, -1.1, 1.13, -0.266, 0.809, 0.522, 0.382, -0.654]

Field: amyloid nucleation score. Fill in for each record below.
1. RFRVEGPMYFICICKRLFTY
2. QVYLILTEMRMTF
3. DHVSLSDSRKKRSQIGIIHA
4. YHTSRYRCTMYMGNSHGAMP
5. YFTERL
6. ILLMFYRCSKDILLIRSTDF
7. TQSSNPTLGGFQFHLWVNIF

1. -0.555
2. 1.4
3. 0.978
4. 0.228
5. 0.122
6. 0.059
7. -1.85
